biological target: T1, Tumor Necrosis Factor-alpha (UniProt P01375 77-233); assay: SPR, kinetic fits of several sensorgrams; Kd from kinetic fits, not equilibrium responses
T1 construct: Immobilised on pipette tips or SPR chips (amine coupling or biotin capture); also called TNF-α; TNF-alpha
T1 sequence (P01375 77-233 limits assumed): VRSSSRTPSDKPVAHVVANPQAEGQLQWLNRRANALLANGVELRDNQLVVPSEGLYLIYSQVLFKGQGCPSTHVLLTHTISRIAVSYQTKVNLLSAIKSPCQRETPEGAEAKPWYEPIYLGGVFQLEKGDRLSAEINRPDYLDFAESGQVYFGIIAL
property_label: pKd
Please note pKd is a logarithmic value: minus log10 of concentration in mol/L. Answer with that number alone.

# pKd lookup, item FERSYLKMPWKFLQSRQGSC [TNF1-opt (D4S+P5Y+M7K+S11K quadruple mutant)]
6.15
